# self-cleavage values compiled below
B1: Hairpin Ribozyme (parent)
chain: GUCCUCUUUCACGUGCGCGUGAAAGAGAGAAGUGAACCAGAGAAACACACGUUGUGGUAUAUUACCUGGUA

# Variants of: B1
# ASSAY DETAILS: self-cleavage, relative activity (ratio to wild type); higher = more cleavage; co-transcriptional

> print(dat)
                           ordered.residues  result
1  GUCCUCUUUCACGUGCGCGUGAAAGAGAGAAGUGAACCAGAGAAACACACGUUGUGGUAUAUUCCCUGGCA  0.0963
2  GUCCUCUUUCACGUGCGCGUGAGAGAGAGAGGUGAACCAGAGAAACACACGUUGUGGUAUAUUACCUGGUA   0.416
3  GUCCUCUUUCACGUGCGCGUGAAAGAGAGAAGUGAACCAGAGAAACACACGUUGUGGUAUAUUACAUUGUA   0.105
4  GUCUUCUUUCACGUGCGCGUGAGAGAGAGAAGUGAACCAGAGAAACACACGUUGUGGUAUAUUACCUGGUA   0.299
5  GUCCUCUUUCACGUGCGCGUGAAAGAGAGAAGUGAACCAGAAAAACACACGUUGUGGUGUAUUACCUGGUA   0.264
6  GUCCUCUUUCACGUGCGCGUGAAAGAGAGCAGUGAACCAGAGAAACACACGUUGUGGUAUAUUCCCUGGUA   0.127
7  GUCCUCUUUCAGGUGCGCGUGAAAGAGAGAAGUGAACCAGAGAAACACACGUUGUGAUAUAUUACCUGGUA   0.152
8  GUCCUCUUUCACGUGCGCGUUAAAGAGAGAAGUGCACCAGAGAAACACACGUUGUGGUAUAUUACCUGGUA   0.841

Next variant, self-cleavage to be filled in.
GUCCUCUUUCACGUGCGCGUGAAAGAUAGAAGUGAACCAGAGAAACACGCGUUGUGGUAUAUUACCUGGUA has a reported self-cleavage of 0.214
